Biological target: B1R receptor of the rat (Rattus norvegicus, UniProt P97583)
Construct: host or cells: CHO K1 cells (Chinese hamster ovary), stably transfected
Sequence (P97583 whole entry): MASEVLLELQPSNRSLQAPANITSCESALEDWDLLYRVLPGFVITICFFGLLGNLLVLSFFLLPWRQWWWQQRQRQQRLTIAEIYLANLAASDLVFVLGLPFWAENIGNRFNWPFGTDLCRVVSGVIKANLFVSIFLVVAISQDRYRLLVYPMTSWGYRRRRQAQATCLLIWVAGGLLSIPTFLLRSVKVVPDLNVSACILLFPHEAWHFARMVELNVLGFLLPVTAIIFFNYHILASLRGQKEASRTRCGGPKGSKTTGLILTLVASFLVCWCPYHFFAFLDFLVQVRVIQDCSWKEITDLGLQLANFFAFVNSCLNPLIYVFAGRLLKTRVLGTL
Experiment: Functional study on the bradykinin receptor 1 (B1R), FLIPR Ca2+ assay, rB1R cells
Assay type: cell-based
Conditions: CHO-K1, test substance 10 μM, agonist Des-Arg9-bradykinin 100 nM, % inhibition compared with the maximum achievable inhibition, read-out: B1R Antagonism, rat [10 μM] % Inhibition
Below is a list of entries, each paired with its recorded inhibition at 10 µM value.
Express your answer in %, writing the number without its unit.

Completed entries (count: 10):
{"compound": "COc1cc(C)c(S(=O)(=O)N2Cc3ccccc3CC2COCC(=O)N2CCN(c3ccccc3)CC2)c(C)c1C (centres unmarked) [Example 479]", "recorded metric": "inhibition at 10 µM", "endpoint unit": "%", "experimental value": 99.1}
{"compound": "O=C(COCC1CCCN1S(=O)(=O)c1c(Cl)cc(Cl)cc1Cl)N1CCN(CCc2ccccc2)CC1 (centres unmarked) [Example 329]", "recorded metric": "inhibition at 10 µM", "endpoint unit": "%", "experimental value": 98.2}
{"compound": "COc1ccccc1N1CCN(C(=O)COCC2CCCCN2S(=O)(=O)c2c(Cl)cccc2Cl)CC1 (centres unmarked) [Example 498]", "recorded metric": "inhibition at 10 µM", "endpoint unit": "%", "experimental value": 96.7}
{"compound": "COc1ccc(S(=O)(=O)N2c3ccccc3CC2COCC(=O)Nc2cccc(CN3CCCCC3)c2)cc1 (centres unmarked) [Example 423]", "recorded metric": "inhibition at 10 µM", "endpoint unit": "%", "experimental value": 80.1}
{"compound": "Cc1cc(C)c(S(=O)(=O)N2CCCCC2COCC(=O)N2CCCCC2Cc2ncccc2C)c(C)c1 (centres unmarked) [Example 229]", "recorded metric": "inhibition at 10 µM", "endpoint unit": "%", "experimental value": 101}
{"compound": "COc1cc(C)c(S(=O)(=O)N2CCCC2COCC(=O)Nc2ccc(N3CCOCC3)c(Cl)c2)c(C)c1 (centres unmarked) [Example 493]", "recorded metric": "inhibition at 10 µM", "endpoint unit": "%", "experimental value": 99.5}
{"compound": "CN1CCC(N2CCN(C(=O)COCC3CCCCN3S(=O)(=O)c3csc4ccccc34)CC2)CC1 (centres unmarked) [Example 137]", "recorded metric": "inhibition at 10 µM", "endpoint unit": "%", "experimental value": 98.8}
{"compound": "COc1cc(C)c(S(=O)(=O)N2CCCCC2COCC(=O)NCc2ccc(CN3CCCCC3)cc2)c(C)c1 (centres unmarked) [Example 2]", "recorded metric": "inhibition at 10 µM", "endpoint unit": "%", "experimental value": 87.4}
{"compound": "COc1ccc(S(=O)(=O)N2c3ccccc3CC2COCC(=O)N2CCC(CCN3CCCCC3)CC2)cc1 (centres unmarked) [Example 547]", "recorded metric": "inhibition at 10 µM", "endpoint unit": "%", "experimental value": 100}
{"compound": "COc1cccc(N2CCN(C(=O)COCC3CCCN3S(=O)(=O)c3c(Cl)cccc3Cl)CC2)c1 (centres unmarked) [Example 324]", "recorded metric": "inhibition at 10 µM", "endpoint unit": "%", "experimental value": 98.4}

Request: Item under review: CN1CCC(N2CCN(C(=O)COCC3CCCCN3S(=O)(=O)c3ccc(Br)cc3)CC2)CC1 (centres unmarked) [Example 123] . Reported inhibition at 10 µM?
Response: 79.9
